All values here come from ChEMBL document CHEMBL5291721.

Exercise: for every item that follows, state its recorded AC50.
- Tested system: Voltage-dependent L-type calcium channel subunit alpha-1C (Rattus norvegicus, UniProt P22002); note: assay procedure not described here
- Sequence (P22002 whole entry): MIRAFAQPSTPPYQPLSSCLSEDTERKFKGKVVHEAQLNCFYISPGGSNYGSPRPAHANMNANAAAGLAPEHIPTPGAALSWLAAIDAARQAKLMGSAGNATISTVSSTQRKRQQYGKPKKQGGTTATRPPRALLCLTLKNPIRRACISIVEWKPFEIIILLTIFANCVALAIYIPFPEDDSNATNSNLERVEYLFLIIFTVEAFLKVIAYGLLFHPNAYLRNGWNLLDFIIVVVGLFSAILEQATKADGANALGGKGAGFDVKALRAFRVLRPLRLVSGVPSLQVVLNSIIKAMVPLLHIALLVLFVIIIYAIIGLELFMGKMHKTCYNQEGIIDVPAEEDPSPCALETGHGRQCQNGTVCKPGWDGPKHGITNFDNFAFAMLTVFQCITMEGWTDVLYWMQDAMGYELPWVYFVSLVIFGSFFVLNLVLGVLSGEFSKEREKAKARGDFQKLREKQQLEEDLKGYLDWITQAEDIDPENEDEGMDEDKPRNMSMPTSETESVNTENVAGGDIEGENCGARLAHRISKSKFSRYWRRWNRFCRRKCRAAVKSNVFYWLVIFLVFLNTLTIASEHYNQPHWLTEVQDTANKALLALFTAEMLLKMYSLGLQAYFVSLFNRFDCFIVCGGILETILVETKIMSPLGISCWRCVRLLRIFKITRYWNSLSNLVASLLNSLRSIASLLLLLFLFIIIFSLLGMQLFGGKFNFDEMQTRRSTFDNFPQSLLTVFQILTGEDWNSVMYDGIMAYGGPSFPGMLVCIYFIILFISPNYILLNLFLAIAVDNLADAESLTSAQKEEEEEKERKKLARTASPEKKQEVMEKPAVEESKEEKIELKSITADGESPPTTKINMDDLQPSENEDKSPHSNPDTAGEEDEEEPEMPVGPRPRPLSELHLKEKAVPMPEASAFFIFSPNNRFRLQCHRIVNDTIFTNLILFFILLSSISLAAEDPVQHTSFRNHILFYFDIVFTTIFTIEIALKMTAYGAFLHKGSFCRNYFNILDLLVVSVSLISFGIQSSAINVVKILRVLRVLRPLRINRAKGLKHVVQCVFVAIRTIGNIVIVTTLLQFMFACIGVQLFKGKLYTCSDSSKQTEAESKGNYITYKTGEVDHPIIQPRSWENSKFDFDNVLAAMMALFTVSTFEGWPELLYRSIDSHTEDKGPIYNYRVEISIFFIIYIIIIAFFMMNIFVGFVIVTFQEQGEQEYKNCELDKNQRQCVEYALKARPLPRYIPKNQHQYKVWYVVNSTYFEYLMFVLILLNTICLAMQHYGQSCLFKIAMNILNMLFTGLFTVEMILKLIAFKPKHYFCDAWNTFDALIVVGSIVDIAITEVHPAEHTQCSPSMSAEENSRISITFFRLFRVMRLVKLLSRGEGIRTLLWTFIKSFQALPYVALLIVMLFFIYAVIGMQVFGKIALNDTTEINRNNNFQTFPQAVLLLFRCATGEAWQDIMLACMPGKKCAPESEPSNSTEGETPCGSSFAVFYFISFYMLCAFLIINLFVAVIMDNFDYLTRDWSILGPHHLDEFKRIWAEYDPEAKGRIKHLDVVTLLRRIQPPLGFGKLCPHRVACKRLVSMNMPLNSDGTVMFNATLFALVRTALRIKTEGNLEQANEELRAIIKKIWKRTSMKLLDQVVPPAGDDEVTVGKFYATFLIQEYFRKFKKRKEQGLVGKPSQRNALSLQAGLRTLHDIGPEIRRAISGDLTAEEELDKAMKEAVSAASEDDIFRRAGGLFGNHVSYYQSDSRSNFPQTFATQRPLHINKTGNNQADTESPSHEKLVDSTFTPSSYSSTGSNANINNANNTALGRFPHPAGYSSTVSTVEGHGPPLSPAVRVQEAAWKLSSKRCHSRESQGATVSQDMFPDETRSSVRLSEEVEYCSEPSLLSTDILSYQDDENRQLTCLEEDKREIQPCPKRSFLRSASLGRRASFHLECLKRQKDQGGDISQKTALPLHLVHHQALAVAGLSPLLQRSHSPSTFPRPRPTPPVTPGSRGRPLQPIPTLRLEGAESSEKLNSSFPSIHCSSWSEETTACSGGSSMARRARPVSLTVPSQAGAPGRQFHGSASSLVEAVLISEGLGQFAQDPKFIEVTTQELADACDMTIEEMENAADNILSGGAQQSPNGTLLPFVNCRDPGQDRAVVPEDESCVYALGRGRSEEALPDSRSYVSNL
- Type: functional

The following compounds have reported results that may help.
Compound	AC50
CCCCCN(C)CCC(O)(P(=O)(O)O)P(=O)(O)O	> 30 µM
CCCCCCCCCCCC[N+](C)(C)CCOc1ccccc1	> 30 µM
COc1ccc2c(c1)C(=O)N(CCc1ccc(S(=O)(=O)NC(=O)NC3CCCCC3)cc1)C(=O)C2(C)C	> 30 µM

Report AC50 for each item below.
1. CNC(=O)c1cc(Oc2ccc(NC(=O)Nc3ccc(Cl)c(C(F)(F)F)c3)cc2)ccn1
2. CN(C)CCCN1c2ccccc2CCc2ccc(Cl)cc21
3. O=C(CCCCCCC(=O)Nc1ccccc1)NO
4. Cc1ccc(C(=O)c2cc(O)c(O)c([N+](=O)[O-])c2)cc1
5. CCC(C(=O)O)c1ccc(CC(C)C)cc1 (stereo unspecified)
6. O=C(O)CCn1c2c(c3ccccc31)C[C@H](NS(=O)(=O)c1ccc(F)cc1)CC2
7. COc1c(C)c2c(c(O)c1C/C=C(\C)CCC(=O)OCCN1CCOCC1)C(=O)OC2 [MYCOPHENOLATE MOFETIL]

Result:
> 30 µM
> 10 µM
> 10 µM
> 10 µM
> 30 µM
> 10 µM
> 30 µM
